Readings of IC50 for the listed compounds
Test system: Radical scavenging activity
Test: Antioxidant activity assessed as DPPH radical scavenging activity after 30 mins by spectrophotometric analysis
Format: functional
Respond numerically; units are µM and should not be typed.

Illustrative cases are given below, each with its answer.
CCOC(=O)/C(CC(=O)c1cccc2c1C(=O)c1ccccc1C2=O)=N\NC(=S)NC1CCCCC1
16.4
O=C1O[C@H]([C@@H](O)CO)C(O)=C1O
15.9
CCOC(=O)/C(CC(=O)c1cccc2c1C(=O)c1ccccc1C2=O)=N\NC(=S)NCc1ccco1
35.8
CCOC(=O)/C(CC(=O)c1cccc2c1C(=O)c1ccccc1C2=O)=N\NC(=S)Nc1ccccc1
26.2
CCOC(=O)/C(CC(=O)c1cccc2c1C(=O)c1ccccc1C2=O)=N\NC(=S)NCc1cccs1
66.5

[Q] Recall the reported IC50 of `CCOC(=O)/C(CC(=O)c1cccc2c1C(=O)c1ccccc1C2=O)=N/NC(N)=S` on Radical scavenging activity and write it down.
[A] 20.5

[Q] Recall the reported IC50 of Cc1cc(C(C)(C)C)c(O)c(C(C)(C)C)c1 [BUTYLATED HYDROXYTOLUENE] on Radical scavenging activity and write it down.
[A] 33.9

[Q] Recall the reported IC50 of `CCOC(=O)/C(CC(=O)c1cccc2c1C(=O)c1ccccc1C2=O)=N\NC(=S)Nc1ccc(C)cc1` on Radical scavenging activity and write it down.
[A] 41

* * *

System: HeLa
Assay: Cell cycle arrest in human HeLa cells assessed as accumulation at S phase at IC50 after 24 hrs by propidium iodide staining-based FACS flow cytometric analysis (reference value: 16.22%)
Format: functional
Activity calls are given as the source filed them. The rule behind the calls is not given here.
endpoint.label: Activity

CCOC(=O)/C(CC(=O)c1cccc2c1C(=O)c1ccccc1C2=O)=N\NC(=S)NCc1ccco1
Active
CCOC(=O)/C(CC(=O)c1cccc2c1C(=O)c1ccccc1C2=O)=N\NC(=S)NC1CCCCC1
Active
CCOC(=O)/C(CC(=O)c1cccc2c1C(=O)c1ccccc1C2=O)=N\NC(=S)NCc1cccs1
20.62%
CCOC(=O)/C(CC(=O)c1cccc2c1C(=O)c1ccccc1C2=O)=N\NC(=S)Nc1ccc(C)cc1
Active
CCOC(=O)/C(CC(=O)c1cccc2c1C(=O)c1ccccc1C2=O)=N\NC(=S)Nc1ccccc1
17.82%
CCOC(=O)/C(CC(=O)c1cccc2c1C(=O)c1ccccc1C2=O)=N/NC(N)=S
Active
CCCCCCNC(=S)N/N=C(/CC(=O)c1cccc2c1C(=O)c1ccccc1C2=O)C(=O)OCC
14.62%
CCCCNC(=S)N/N=C(/CC(=O)c1cccc2c1C(=O)c1ccccc1C2=O)C(=O)OCC
Active

Kindly consider the entry below.
[Q] Recall the reported Activity of `CCOC(=O)/C(CC(=O)c1cccc2c1C(=O)c1ccccc1C2=O)=N\NC(=S)NCc1cccnc1` on HeLa and write it down.
[A] Active

* * *

Readings of Kb for the listed compounds
Tested on: DNA
Assay: Binding affinity to calf thymus DNA after 1.5 hrs by spectroscopic titration
Format: nucleic-acid assay
Conditions: Bos taurus
Respond numerically; units are ×10⁹ /M and should not be typed.

CCOC(=O)/C(CC(=O)c1cccc2c1C(=O)c1ccccc1C2=O)=N\NC(=S)Nc1ccc(C)cc1
2.91

[Q] Output measured Kb for this item: `CCOC(=O)/C(CC(=O)c1cccc2c1C(=O)c1ccccc1C2=O)=N/NC(N)=S`
[A] 0.55

[Q] Output measured Kb for this item: `CCOC(=O)/C(CC(=O)c1cccc2c1C(=O)c1ccccc1C2=O)=N\NC(=S)Nc1ccccc1`
[A] 9.3

* * *

Test system: HeLa
Test: Cell cycle arrest in human HeLa cells assessed as accumulation at subG1 phase at IC50 after 24 hrs by propidium iodide staining-based FACS flow cytometric analysis (reference value: 9.10%)
Type: functional
The source made the active and inactive calls. The rule behind the calls is not given here.
endpoint.label: Activity

Illustrative cases are given below, each with its answer.
CCOC(=O)/C(CC(=O)c1cccc2c1C(=O)c1ccccc1C2=O)=N\NC(=S)NC1CCCCC1
Active
CCOC(=O)/C(CC(=O)c1cccc2c1C(=O)c1ccccc1C2=O)=N\NC(=S)NCc1cccs1
28.61%
CCOC(=O)/C(CC(=O)c1cccc2c1C(=O)c1ccccc1C2=O)=N\NC(=S)NCc1cccnc1
Active
CCOC(=O)/C(CC(=O)c1cccc2c1C(=O)c1ccccc1C2=O)=N\NC(=S)Nc1ccc(C)cc1
Active

Kindly consider the entry below.
[Q] Output measured Activity for this item: `CCOC(=O)/C(CC(=O)c1cccc2c1C(=O)c1ccccc1C2=O)=N/NC(N)=S`
[A] Active

* * *

System: HeLa
Test: Cell cycle arrest in human HeLa cells assessed as accumulation at subG1 phase at 2 times IC50 after 24 hrs by propidium iodide staining-based FACS flow cytometric analysis (reference value: 9.10%)
Format: functional
Calls of active or inactive are those of the source. The calls are words filed in the database; no cut-off is given here.
endpoint.label: Activity

Illustrative cases are given below, each with its answer.
CCOC(=O)/C(CC(=O)c1cccc2c1C(=O)c1ccccc1C2=O)=N\NC(=S)NCc1cccnc1
Active
CCOC(=O)/C(CC(=O)c1cccc2c1C(=O)c1ccccc1C2=O)=N\NC(=S)NCc1ccco1
Active
CCOC(=O)/C(CC(=O)c1cccc2c1C(=O)c1ccccc1C2=O)=N\NC(=S)NC1CCCCC1
Active
CCOC(=O)/C(CC(=O)c1cccc2c1C(=O)c1ccccc1C2=O)=N\NC(=S)Nc1ccccc1
23.74%
CCOC(=O)/C(CC(=O)c1cccc2c1C(=O)c1ccccc1C2=O)=N\NC(=S)Nc1ccc(C)cc1
Active
CCCCNC(=S)N/N=C(/CC(=O)c1cccc2c1C(=O)c1ccccc1C2=O)C(=O)OCC
Active
CCOC(=O)/C(CC(=O)c1cccc2c1C(=O)c1ccccc1C2=O)=N\NC(=S)NCc1cccs1
36.27%
CCOC(=O)/C(CC(=O)c1cccc2c1C(=O)c1ccccc1C2=O)=N/NC(N)=S
Active

[Q] Output measured Activity for this item: `CCCCCCNC(=S)N/N=C(/CC(=O)c1cccc2c1C(=O)c1ccccc1C2=O)C(=O)OCC`
[A] 37.32%

* * *

Tested on: HeLa
Assay: Cell cycle arrest in human HeLa cells assessed as accumulation at S phase at 2 times IC50 after 24 hrs by propidium iodide staining-based FACS flow cytometric analysis (reference value: 16.22%)
Assay type: functional
Calls of active or inactive are those of the source. The calls are words filed in the database; no cut-off is given here.
endpoint.label: Activity

CCOC(=O)/C(CC(=O)c1cccc2c1C(=O)c1ccccc1C2=O)=N\NC(=S)NCc1cccs1
13.79%
CCCCNC(=S)N/N=C(/CC(=O)c1cccc2c1C(=O)c1ccccc1C2=O)C(=O)OCC
Active
CCOC(=O)/C(CC(=O)c1cccc2c1C(=O)c1ccccc1C2=O)=N\NC(=S)NCc1cccnc1
Active
CCCCCCNC(=S)N/N=C(/CC(=O)c1cccc2c1C(=O)c1ccccc1C2=O)C(=O)OCC
17.17%
CCOC(=O)/C(CC(=O)c1cccc2c1C(=O)c1ccccc1C2=O)=N\NC(=S)NCc1ccco1
Active
CCOC(=O)/C(CC(=O)c1cccc2c1C(=O)c1ccccc1C2=O)=N/NC(N)=S
Active
CCOC(=O)/C(CC(=O)c1cccc2c1C(=O)c1ccccc1C2=O)=N\NC(=S)Nc1ccc(C)cc1
Active
CCOC(=O)/C(CC(=O)c1cccc2c1C(=O)c1ccccc1C2=O)=N\NC(=S)Nc1ccccc1
19.4%

Kindly consider the entry below.
[Q] Output measured Activity for this item: `CCOC(=O)/C(CC(=O)c1cccc2c1C(=O)c1ccccc1C2=O)=N\NC(=S)NC1CCCCC1`
[A] Active

* * *

Readings of pIC50 for the listed molecules
System: A549
Assay: Cytotoxicity against human A549 cells after 72 hrs by MTT assay
Type: functional, cell-based
Conditions: A549, 72 h
Hey, just a heads up that pIC50 is the negative log base 10 of the concentration in molar.

Illustrative cases are given below, each with its answer.
CCOC(=O)/C(=C/C(=O)c1cccc2c1C(=O)c1ccccc1C2=O)Nc1ccccc1
4.00
CCOC(=O)/C(CC(=O)c1cccc2c1C(=O)c1ccccc1C2=O)=N\NC(=S)Nc1ccc(C)cc1
4.65
CCOC(=O)/C(CC(=O)c1cccc2c1C(=O)c1ccccc1C2=O)=N\NC(=S)NC1CCCCC1
4.86
CCCCNC(=S)N/N=C(/CC(=O)c1cccc2c1C(=O)c1ccccc1C2=O)C(=O)OCC
4.71
CCOC(=O)/C(CC(=O)c1cccc2c1C(=O)c1ccccc1C2=O)=N/NC(N)=S
4.54
CCOC(=O)/C(CC(=O)c1cccc2c1C(=O)c1ccccc1C2=O)=N\NC(=S)NCc1cccnc1
4.63
CCOC(=O)/C(CC(=O)c1cccc2c1C(=O)c1ccccc1C2=O)=N\Nc1ccccc1
4.40
CCOC(=O)/C(CC(=O)c1cccc2c1C(=O)c1ccccc1C2=O)=N\NC(=S)NCc1ccco1
4.65
CCOC(=O)/C(CC(=O)c1cccc2c1C(=O)c1ccccc1C2=O)=N\NC(=S)Nc1ccccc1
5.00
CCOC(=O)/C(CC(=O)c1cccc2c1C(=O)c1ccccc1C2=O)=N\NC(=S)NCc1cccs1
4.89

Kindly consider the entry below.
[Q] Output measured pIC50 for this item: `CCCCCCNC(=S)N/N=C(/CC(=O)c1cccc2c1C(=O)c1ccccc1C2=O)C(=O)OCC`
[A] 4.36
